system: Trichophyton rubrum; assay: Antifungal activity in vitro, resazurin growth inhibition: Trichophyton rubrum (B68183); type: cell-based
OUTCOME MEASURE: Inf. C: Trichophyton rubrum B68183, pIC50
Answer using only a numeral; do not append any unit.

Lab note: Clc1ccc2c(c1)-n1cccc1C(c1cc3ccccc3o1)=NC2 [Compound 119] gave Inf. C: Trichophyton rubrum B68183, pIC50 of 6.87

Lab note: CC(=O)c1ccc(C2=NCc3c(F)cc(F)cc3-n3cccc32)cn1 [Compound 94] gave Inf. C: Trichophyton rubrum B68183, pIC50 of 6.19

Lab note: FC(F)(F)c1cc(C2=NCc3ccc(Cl)cc3-n3cccc32)ccn1 [Compound 98] gave Inf. C: Trichophyton rubrum B68183, pIC50 of 4.47

Lab note: Cc1nc(Cl)cc2cc(C3=NCc4c(Cl)cccc4-n4cccc43)oc12 [Compound 160] gave Inf. C: Trichophyton rubrum B68183, pIC50 of 5.84

Lab note: Cc1ccc(Cl)c2c1-n1cccc1C(c1cc3ccccc3s1)NC2.Cl (racemic) [Compound 57] gave Inf. C: Trichophyton rubrum B68183, pIC50 of 5.10

Lab note: Cl.Clc1cc(Cl)c2c(c1)-n1cccc1C(c1cc3ccccc3o1)NC2 (racemic) [Compound 31] gave Inf. C: Trichophyton rubrum B68183, pIC50 of 5.31

Lab note: Cc1cccc2c1CNC(c1cc3cc(Cl)ccc3o1)c1cccn1-2.Cl (racemic) [Compound 34] gave Inf. C: Trichophyton rubrum B68183, pIC50 of 6.72

Lab note: CC(F)(F)c1ccc(C2=NCc3c(Cl)cc(F)cc3-n3cccc32)cn1 [Compound 85] gave Inf. C: Trichophyton rubrum B68183, pIC50 of 6.81

Lab note: COc1cccc2cc(C3NCc4ccc(Cl)cc4-n4cccc43)oc12.Cl (racemic) [Compound 42] gave Inf. C: Trichophyton rubrum B68183, pIC50 of 5.06

###

test system: Sporothrix schenkii; experiment: Antifungal activity in vitro, resazurin growth inhibition: Sporothrix schenkii (B62482); format: cell-based
Please go through the items and note down their Inf. A: Sporothrix schenkii B62482, pIC50.

Lab note: `Clc1cccc2c1CN=C(c1cc3cccc(Cl)c3o1)c1cccn1-2` gave Inf. A: Sporothrix schenkii B62482, pIC50 of <4.19

Lab note: Cc1ccc2cc(C3NCc4ccccc4-n4cccc43)oc2c1.Cl (racemic) gave Inf. A: Sporothrix schenkii B62482, pIC50 of 4.40

Lab note: `COc1ccc2oc(C3=NCc4c(Cl)cccc4-n4cccc43)cc2c1` gave Inf. A: Sporothrix schenkii B62482, pIC50 of <4.19

Lab note: `CC(F)(F)c1ccc(C2=NCc3c(Cl)cccc3-n3cccc32)cn1` gave Inf. A: Sporothrix schenkii B62482, pIC50 of <4.19

Lab note: `Cc1ccc2cc(C3=NCc4c(Cl)cccc4-n4cccc43)ccc2n1` gave Inf. A: Sporothrix schenkii B62482, pIC50 of <4.19

###

Please go through the items and note down their Inf. G: Trichophyton mentagrophytes B70554, pIC50.
system: Trichophyton mentagrophytes; assay: Antifungal activity in vitro, resazurin growth inhibition: Trichophyton mentagrophytes (B70554); format: cell-based
Answer using only a numeral; do not append any unit.

Lab note: Cc1cccc2c1-n1cccc1C(c1cc3ccccc3s1)NC2.Cl (racemic) [Compound 55] gave Inf. G: Trichophyton mentagrophytes B70554, pIC50 of 5.72

Lab note: Clc1cccc2c1CN=C(c1ccc3ccsc3c1)c1cccn1-2 [Compound 172] gave Inf. G: Trichophyton mentagrophytes B70554, pIC50 of 6.81

Lab note: Fc1cccc2c1CN=C(c1ccc3sccc3c1)c1cccn1-2 [Compound 175] gave Inf. G: Trichophyton mentagrophytes B70554, pIC50 of 7.11

Lab note: c1ccc2c(c1)CN=C(c1ccc3ncsc3c1)c1cccn1-2 [Compound 182] gave Inf. G: Trichophyton mentagrophytes B70554, pIC50 of 5.87
